# Assayed Target: T1, TNFR1 (Homo sapiens, UniProt P19438)
# T1 chain: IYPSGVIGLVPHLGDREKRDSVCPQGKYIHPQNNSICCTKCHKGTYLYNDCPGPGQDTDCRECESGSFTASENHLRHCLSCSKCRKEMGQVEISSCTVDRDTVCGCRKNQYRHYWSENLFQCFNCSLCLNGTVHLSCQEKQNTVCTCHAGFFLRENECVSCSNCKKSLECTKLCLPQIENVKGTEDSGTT
# Assay Overview: yeast display SC50
Quantity Measured: apparent Kd (screen) (nM)
Answers are plain numbers, in nM.

Please review the following examples before continuing.
{"Binder": "E62T (designed binder) SMEEEVEKAAKEYEKKKKEAIEKHLEKLKAKDKEAAERFLKELEEAAKEYAKDEAKTMSEETAKRRAKKYKEKVLLSELSEEEQKEIKEAEEKLVRTILKYVEEAAK", "Quantity Measured": "apparent Kd (screen)", "Meas Value": 1.54}
{"Binder": "K48V (designed binder) SMEEEVEKAAKEYEKKKKEAIEKHLEKLKAKDKEAAERFLKELEEAAVEYAKDEAKTMSEEEAKRRAKKYKEKVLLSELSEEEQKEIKEAEEKLVRTILKYVEEAAK", "Quantity Measured": "apparent Kd (screen)", "Meas Value": 0.653}
{"Binder": "L99A (designed binder) SMEEEVEKAAKEYEKKKKEAIEKHLEKLKAKDKEAAERFLKELEEAAKEYAKDEAKTMSEEEAKRRAKKYKEKVLLSELSEEEQKEIKEAEEKLVRTIAKYVEEAAK", "Quantity Measured": "apparent Kd (screen)", "Meas Value": 16.7}

Attention now shifts to the item below.
Looking up K33H (designed binder) SMEEEVEKAAKEYEKKKKEAIEKHLEKLKAKDHEAAERFLKELEEAAKEYAKDEAKTMSEEEAKRRAKKYKEKVLLSELSEEEQKEIKEAEEKLVRTILKYVEEAAK , I found its apparent Kd (screen) recorded as 0.446
